# assay protocol: Dynamic solubility test in biological media and water
# Assay type: physicochemical
# condition: thermodynamic from solid; Water, 2 h
measured endpoint: solubility at 2 h

{"columns": ["molecule", "measured endpoint", "observed value"],
 "data": [
  ["CN1CCN(C2CCN(c3ccc(Nc4ncc5sc(C(=O)N(C)C)c(C6CCCC6)c5n4)nc3)CC2)CC1 [crystal form A]", "solubility at 2 h", "> 5450 µg/mL"]
]}

---

# assay protocol: Dynamic solubility test in biological media and water
# Type: physicochemical
# condition: thermodynamic from solid; FaSSIF, pH 6.5, 0.5 h

{"columns": ["compound", "solubility at 0.5 h"],
 "data": [
  ["CN1CCN(C2CCN(c3ccc(Nc4ncc5sc(C(=O)N(C)C)c(C6CCCC6)c5n4)nc3)CC2)CC1 [crystal form A]", "> 5150 µg/mL"]
]}
